For each entry below, report its log10 IC50 value.
systemName: purified human Hsp90
assayDetails: Binding Assay: fluorescence polarization with BODIPY-labeled geldanamycin
testConditions: BODIPY-GM 10 nM, Hsp90 30 nM
Excerpt: Compound binding to purified Hsp90 was monitored using BODIPY-labeled geldanamycin (BODIPY-GM) in a fluorescence polarization assay adapted from Kim et al. (Journal of Biomolecular Screening 2004, 9(5):375-381). […] Parallel and perpendicular fluorescence measurements were read (LJL BioSystems Analyst AD plate reader) with excitation/emission wavelengths of 485/530 nm. […]
Scale type: logarithmic (base 10). Underlying IC50 unit: nM.

In the examples that follow, each entry is paired with its recorded log10 IC50.
CC(C)(C)CC(=O)N1CCCC(CCn2c(Sc3cc4c(cc3Br)OCO4)nc3c(N)ncnc32)C1 (stereo not shown)    2.48
Nc1ncnc2c1nc(Sc1cc3c(cc1Br)OCO3)n2CCc1cccc(C(F)(F)F)c1    2.48

// for each compound in input: emit log10 IC50
1. CC(=O)N1CCN(CCn2c(Sc3cc4c(cc3Br)OCO4)nc3c(N)ncnc32)CC1
2. CC(C)(C)OC(=O)NC(CCn1c(Sc2cc3c(cc2Br)OCO3)nc2c(N)ncnc21)C1CCCCC1 (stereo not shown)
3. Nc1ncnc2c1nc(Sc1cc3c(cc1Br)OCO3)n2CCc1ccccc1Br
4. Nc1ncnc2c1nc(Sc1cc3c(cc1Br)OCO3)n2CCNc1cccc2cccnc12
5. CCOc1cc(CCn2c(Sc3cc4c(cc3Br)OCO4)nc3c(N)ncnc32)ccc1OC
6. Nc1ncnc2c1nc(Sc1cc3c(cc1Br)OCO3)n2CCC1CCCN(CC(F)(F)F)C1 (stereo not shown)
7. CC(C)CN1CCC(CCn2c(Sc3cc4c(cc3Br)OCO4)nc3c(N)ncnc32)CC1
8. Nc1ncnc2c1nc(Sc1cc3c(cc1Br)OCO3)n2CCn1cnc2ccccc2c1=O

-- reply
1. 2.15
2. 3.20
3. 1.85
4. 3.26
5. 2.48
6. 2.15
7. 2.85
8. 3.74

// for each compound in input: emit log10 IC50
1. COc1ccc(OC)c(Sc2nc3c(N)ncnc3n2CCc2ccccc2F)c1
2. CC(C)C[C@H](N)C(=O)N1CCC(CCn2c(Sc3cc4c(cc3Br)OCO4)nc3c(N)ncnc32)CC1
3. COc1ccc(OC)c(Sc2nc3c(N)ncnc3n2CCc2cccc(I)c2)c1
4. COc1cc(Sc2nc3c(N)ncnc3n2CCc2ccccc2)c(Cl)c(OC)c1OC
5. CC(C)n1nnnc1N1CCC(CCn2c(Sc3cc4c(cc3Br)OCO4)nc3c(N)ncnc32)CC1
6. CC(C)(C)OC(=O)CN1CCCCC1CCn1c(Sc2cc3c(cc2Br)OCO3)nc2c(N)ncnc21 (stereo not shown)
7. CC(C)(C)OC(=O)N1CCCC[C@@H]1CCn1c(Sc2cc3c(cc2Br)OCO3)nc2c(N)ncnc21

-- reply
1: 2.18; 2: 1.83; 3: 2.32; 4: 3.48; 5: 2.36; 6: 2.65; 7: 2.85

// for each compound in input: emit log10 IC50
1. Nc1ncnc2c1nc(Sc1cc3c(cc1Br)OCO3)n2CC=C1CCNCC1
2. COC(=O)[C@H](CCSC)NC(=O)N1CCC(CCn2c(Sc3cc4c(cc3Br)OCO4)nc3c(N)ncnc32)CC1

-- reply
2.78
1.93

* * *

systemName: purified human Hsp90
assayDetails: Binding Assay: fluorescence polarization with BODIPY-labeled geldanamycin
testConditions: BODIPY-GM 10 nM, Hsp90 30 nM
pIC50: −log10 of the molar value.
For each entry below, report its pIC50 value.

In the examples that follow, each entry is paired with its recorded pIC50.
COc1ccc(I)c(Sc2nc3c(N)ncnc3n2CCc2ccc(I)cc2)c1 [Example 310]    < 4.60
COc1ccc(OC)c(Sc2nc3c(N)ncnc3n2CCc2ccc(OC)c(OC)c2)c1 [Example 21]    < 5.00
Nc1ncnc2c1nc(Sc1ccc3occc3c1)n2CCC1CCN(C=O)CC1 [Example 539]    < 5.30

Now consider a different compound.
-- ask pIC50 lookup needed for CCOc1ccc(OCC)c(Sc2nc3c(N)ncnc3n2CCc2ccccc2Cl)c1 [Example 191] , thanks.
-- reply < 5.10

* * *

For each entry below, report its % Inhibition at 5 μM Compound Concentration value.
Test system: purified human Hsp90
assayDetails: Binding Assay: fluorescence polarization with BODIPY-labeled geldanamycin
testConditions: 5 μM compound, BODIPY-GM 10 nM, Hsp90 30 nM
Numbers only, in %.

In the examples that follow, each entry is paired with its recorded % Inhibition at 5 μM Compound Concentration.
COc1ccc(OC)c(Sc2nc3c(N)ncn(CCc4c(C)cc(C)cc4C)c-3n2)c1 [Example 56]    3
COc1ccc(OC)c(Sc2nc3c(N)ncnc3n2CCc2ccc(C(=O)O)cc2)c1 [Example 81]    23

// for each compound in input: emit % Inhibition at 5 μM Compound Concentration
1. COc1ccc(OC)c(Sc2nc3c(N)ncnc3n2CCc2ccc3c(c2)OCO3)c1 [Example 167]
2. COc1ccc(OC)c(Sc2nc3c(N)ncn(CCc4cccc(Cl)c4Cl)c-3n2)c1 [Example 74]
3. CC(C)(C)C(=O)N1CCCC(CCn2cnc(N)c3nc(Sc4cc5c(cc4Br)OCO5)nc2-3)C1 (stereo not drawn) [Example 450]

-- reply
1: 44; 2: 0; 3: 57

// for each compound in input: emit % Inhibition at 5 μM Compound Concentration
1. Nc1ncn(CC2(c3ccc(Cl)cc3)CCC2)c2nc(Sc3cc4c(cc3Br)OCO4)nc1-2 [Example 96]
2. COc1ccc(OC)c(Sc2nc3c(N)ncn(CCC(NC(=O)OC(C)(C)C)C4CC4)c-3n2)c1 (stereo not drawn) [Example 665]
3. Nc1ncn(CCC2CCN(C=O)CC2)c2nc(Sc3cc4c(cc3Br)OCO4)nc1-2 [Example 602]
4. Nc1ncn(CCC2CCCN2C(=O)OCc2ccccc2)c2nc(Sc3cc4c(cc3Br)OCO4)nc1-2 (stereo not drawn) [Example 421]

-- reply
1: 2; 2: 0; 3: 31.00; 4: 28

* * *

For each entry below, report its IC50 value.
systemName: purified human Hsp90
assayDetails: Binding Assay: fluorescence polarization with BODIPY-labeled geldanamycin
testConditions: BODIPY-GM 10 nM, Hsp90 30 nM
Description: Compound binding to purified Hsp90 was monitored using BODIPY-labeled geldanamycin (BODIPY-GM) in a fluorescence polarization assay adapted from Kim et al. (Journal of Biomolecular Screening 2004, 9(5):375-381). […] Parallel and perpendicular fluorescence measurements were read (LJL BioSystems Analyst AD plate reader) with excitation/emission wavelengths of 485/530 nm. […]

In the examples that follow, each entry is paired with its recorded IC50.
COc1cc(Sc2nc3c(N)ncnc3n2CCC2CCN(C=O)CC2)cc(OC)c1OC    > 5 µM
CC(=O)N1CCC(CCn2c(Sc3nc4c(Cl)cccc4s3)nc3c(N)ncnc32)CC1    > 2 µM

-- ask Form field: IC50 recorded for `C[C@H](NC(=O)OC(C)(C)C)C(=O)N1CCC(CCn2c(Br)nc3c(N)ncnc32)CC1` with purified human Hsp90 (enter value)
-- reply > 5 µM

* * *

systemName: purified human Hsp90
assayDetails: Binding Assay: fluorescence polarization with BODIPY-labeled geldanamycin
testConditions: BODIPY-GM 10 nM, Hsp90 30 nM
Source text: Compound binding to purified Hsp90 was monitored using BODIPY-labeled geldanamycin (BODIPY-GM) in a fluorescence polarization assay adapted from Kim et al. (Journal of Biomolecular Screening 2004, 9(5):375-381). […] Parallel and perpendicular fluorescence measurements were read (LJL BioSystems Analyst AD plate reader) with excitation/emission wavelengths of 485/530 nm. […]
property: IC50

C#CCN1CCC(CCn2c(Sc3cc4c(cc3Br)OCO4)nc3c(N)ncnc32)CC1 [Example 625]    0.11 µM
COc1cc(Sc2nc3c(N)nc(F)nc3n2CCc2ccccc2Cl)cc(OC)c1OC [Example 237]    > 25 µM
CC(=O)N1CCC(CCn2c(Sc3ccc4c(c3)CCO4)nc3c(N)ncnc32)CC1 [Example 528]    > 5 µM
Nc1ncnc2c1nc(Sc1cc3c(cc1Br)OCO3)n2CC1(c2ccc(Cl)cc2)CC1 [Example 221]    > 9 µM
COc1cc(Sc2nc3c(N)ncnc3n2CCC2CCN(C=O)CC2)c(OC)cc1Cl [Example 558]    > 5 µM

Now consider a different compound.
-- ask IC50 lookup needed for Nc1ncnc2c1nc(Sc1ccc3c(c1)OC(F)(F)O3)n2CCc1ccccc1Cl [Example 294] , thanks.
-- reply > 25 µM

* * *

systemName: purified human Hsp90
assayDetails: Binding Assay: fluorescence polarization with BODIPY-labeled geldanamycin
testConditions: BODIPY-GM 10 nM, Hsp90 30 nM
property: IC50

In the examples that follow, each entry is paired with its recorded IC50.
Nc1ncn(CCc2c(F)c(F)c(F)c(F)c2F)c2nc(Sc3cc4c(cc3Br)OCO4)nc1-2 [Example 42]    > 5 µM
COc1cc(Sc2nc3c(N)ncnc3n2CCCc2ccccc2)cc(OC)c1OC [Example 47]    > 10 µM
CCOc1ccc(OCC)c(Sc2nc3c(N)ncnc3n2CCc2ccccc2)c1 [Example 189]    > 8 µM
COc1cc(Sc2nc3c(N)ncn(CCc4ccccc4)c-3n2)cc(OC)c1OC [Example 46]    > 10 µM
COc1ccc(OC)c(Sc2nc3c(N)ncnc3n2CC2(c3ccc(Cl)cc3)CC2)c1 [Example 279]    > 25 µM

-- ask Form field: IC50 recorded for CCOc1ccc(OCC)c(Sc2nc3c(N)ncnc3n2CCC2CCN(C(=O)OC(C)(C)C)CC2)c1 [Example 362] with purified human Hsp90 (enter value)
-- reply > 25 µM

// data source = patent US7595401B2
